We begin with a simple list: items and their reported pest or weed control at 250 g/ha.
Test system: Avena fatua (AVEFA)
Experimental details: Example A glasshouse herbicide test, post-emergence, AVEFA
Assay type: in vivo
Experimental context: Avena fatua, post-emergence, 312 h, Rate 250 g/ha, sprayed after 8 days cultivation, evaluated after 13 days, read-out: Post-Emergence Activity AVEFA (100=total damage to plant; 0=no damage to plant)
Give the value; after it, write the unit.

Some solved entries appear below for comparison.
# Compound, Assay target, pest or weed control at 250 g/ha
measured = [
    ("Cc1cccc(C)c1C1C(=O)CC(CC2CCCCC2)C1=O (stereo not drawn)", "Avena fatua (AVEFA)", "20%"),
    ("Cc1cc(C)c(C2=C(OC(=O)C(C)(C)C)CC(Cc3ccc(F)cc3)C2=O)c(C)c1 (stereo not drawn)", "Avena fatua (AVEFA)", "20%"),
    ("Cc1cc(C)c(C2C(=O)CC(Cc3cccc(Oc4ccccc4)c3)C2=O)c(C)c1 (stereo not drawn)", "Avena fatua (AVEFA)", "30%"),
]

QUERY: Could you tell me which pest or weed control at 250 g/ha is on file for Cc1cc(C)c(C2C(=O)C/C(=C\C3CCCCC3C)C2=O)c(C)c1 (stereo not drawn) ?
RESULT: 50%

QUERY: Could you tell me which pest or weed control at 250 g/ha is on file for C=C(C)C1CCC(/C=C2\CC(=O)C(c3c(C)cc(C)cc3C)C2=O)CC1 (stereo not drawn) ?
RESULT: 20%

QUERY: Could you tell me which pest or weed control at 250 g/ha is on file for Cc1cccc(CC2CC(=O)C(c3c(C)cc(C)cc3C)C2=O)c1 (stereo not drawn) ?
RESULT: 50%

QUERY: Could you tell me which pest or weed control at 250 g/ha is on file for Cc1cc(C)c(C2C(=O)CC(CC3CCC3)C2=O)c(C)c1 (stereo not drawn) ?
RESULT: 80%

QUERY: Could you tell me which pest or weed control at 250 g/ha is on file for Cc1cc(C)c(C2C(=O)CC(CC3CCC(=NO)CC3)C2=O)c(C)c1 (stereo not drawn) ?
RESULT: 90%

QUERY: Could you tell me which pest or weed control at 250 g/ha is on file for Cc1cc(Br)cc(C)c1C1C(=O)CC(CC2CCCCC2)C1=O (stereo not drawn) ?
RESULT: 0%

====

Tested on: Alopecurus myosuroides (ALOMY)
Experimental details: Example A glasshouse herbicide test, post-emergence, ALOMY
Assay type: in vivo
Experimental context: Alopecurus myosuroides, post-emergence, 312 h, Rate 250 g/ha, sprayed after 8 days cultivation, evaluated after 13 days, read-out: Post-Emergence Activity ALOMY (100=total damage to plant; 0=no damage to plant)
Parameter measured: pest or weed control at 250 g/ha
Give the value; after it, write the unit.

# Molecule, pest or weed control at 250 g/ha
records = [
    ("CC(=O)OC1CCC(CC2CC(=O)C(c3c(C)cc(C)cc3C)=C2OC(=O)C(C)(C)C)CC1 (stereo not shown) [Compound B4]", "60%"),
    ("Cc1cc(C)c(C2C(=O)C/C(=C\\C3CCCCC3C)C2=O)c(C)c1 (stereo not shown) [Compound A26]", "60%"),
    ("Cc1cc(C)c(C2C(=O)CC(CC3CCC3)C2=O)c(C)c1 (stereo not shown) [Compound A25]", "60%"),
]

Now let's try a different one.
QUERY: Could you tell me which pest or weed control at 250 g/ha is on file for Cc1cc(C)c(C2C(=O)C/C(=C\C3CC3)C2=O)c(C)c1 (stereo not shown) [Compound A27] ?
RESULT: 60%

Values from patent US8791303B2
